target: SIK1 (Homo sapiens); assay: SIK isoform dose response; format: biochemical
Sequence (P57059 whole entry, canonical isoform): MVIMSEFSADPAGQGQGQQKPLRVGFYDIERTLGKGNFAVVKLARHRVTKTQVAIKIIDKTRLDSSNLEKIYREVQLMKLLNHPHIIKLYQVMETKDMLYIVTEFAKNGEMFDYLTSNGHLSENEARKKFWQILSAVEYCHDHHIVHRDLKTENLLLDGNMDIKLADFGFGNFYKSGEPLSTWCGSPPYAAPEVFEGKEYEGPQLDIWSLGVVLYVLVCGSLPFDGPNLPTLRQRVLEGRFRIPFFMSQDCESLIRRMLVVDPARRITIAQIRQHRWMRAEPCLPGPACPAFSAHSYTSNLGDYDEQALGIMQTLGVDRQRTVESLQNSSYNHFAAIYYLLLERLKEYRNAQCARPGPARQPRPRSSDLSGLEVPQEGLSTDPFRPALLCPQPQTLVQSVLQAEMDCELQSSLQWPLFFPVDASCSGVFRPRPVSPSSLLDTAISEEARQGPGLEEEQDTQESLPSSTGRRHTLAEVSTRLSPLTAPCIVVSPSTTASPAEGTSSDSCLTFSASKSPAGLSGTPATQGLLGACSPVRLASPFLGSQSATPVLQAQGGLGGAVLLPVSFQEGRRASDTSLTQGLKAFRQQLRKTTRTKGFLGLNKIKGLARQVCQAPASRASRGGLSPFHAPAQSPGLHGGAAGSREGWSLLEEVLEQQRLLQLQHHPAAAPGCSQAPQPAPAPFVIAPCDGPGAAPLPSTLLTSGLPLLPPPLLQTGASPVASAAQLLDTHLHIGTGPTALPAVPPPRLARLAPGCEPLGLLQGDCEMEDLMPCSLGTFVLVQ
Observable: pIC50
Numbers only, as −log10 of the molar value.

Asked: Record request: pIC50 value, item COc1c(F)cc(F)cc1-c1c[nH]c2ncc(-c3cnn(C4CCN(S(C)(=O)=O)CC4)c3)cc12 [Compound B]
Given back: 6.45

---

Test system: OVCAR3
Experiment: CellTiter-Glo cell viability dose response
Format: cell-based
Details: Homo sapiens, OVCAR-3, 96 h
Experimental: Luminescence was measured on a Synergy2 microplate reader (BioTek) after 10 min of shaking. Dose-response experiments were plotted and IC50 values were calculated using nonlinear curve fitting with normalized response and variable slope by GraphPad Prism 8. Drug interaction of the two-drug combination using a constant ratio were processed and a Combination Index (CI) was calculated using CalcuSyn 2.0 (BIOSOFT). CI<1 indicates synergism, CI=1 indicates additive effect and CI>1 indicates antagonism.
Observable: IC50 (µM)
Give bare numbers, in µM.

O=C(c1cc(Cc2n[nH]c(=O)c3ccccc23)ccc1F)N1CCN(C(=O)C2CC2)CC1 [Olaparib, olaparib]    3.79

Field: next compound
Asked: Value lookup for IC50; key = COc1c(F)cc(F)cc1-c1c[nH]c2ncc(-c3cnn(C4CCNCC4)c3)cc12 [Compound A]
Given back: 2.83

---

test system: NOE72; test: CellTiter-Glo cell viability dose response; assay type: cell-based; conditions: 96 h
Task for the reader: assign each of the following compounds its reported pIC50.
Give bare numbers, as −log10 of the molar value.

O=C(c1cc(Cc2n[nH]c(=O)c3ccccc23)ccc1F)N1CCN(C(=O)C2CC2)CC1    5.19

Shift focus to the following entry.
Asked: Need pIC50, item COc1c(F)cc(F)cc1-c1c[nH]c2ncc(-c3cnn(C4CCNCC4)c3)cc12
Given back: 5.24

---

system: OV90; assay: CellTiter-Glo cell viability dose response; assay type: cell-based; conditions: Homo sapiens, OV-90, 96 h
For each of the molecules below, state its IC50.
Give bare numbers, in µM.

COc1c(F)cc(F)cc1-c1c[nH]c2ncc(-c3cnn(C4CCNCC4)c3)cc12    3.87

Next item in the queue.
Asked: Looking for the measured IC50 of O=C(c1cc(Cc2n[nH]c(=O)c3ccccc23)ccc1F)N1CCN(C(=O)C2CC2)CC1 , can you help?
Given back: 8.36

---

test system: A2780-CP20; test: Cell viability, cisplatin-resistant sub-line; type: cell-based; details: 96 h
Observable: IC50 (µM)
Give bare numbers, in µM.

Asked: Please report the recorded IC50 for N.N.O=C([O-])C1(C(=O)[O-])CCC1.[Pt+2] .
Given back: 34.9

---

Task for the reader: assign each of the following compounds its reported IC50.
tested on: SKOv3; test: CellTiter-Glo cell viability dose response; format: cell-based; conditions: Homo sapiens, SK-OV-3, 96 h
One number for each entry, in µM.

COc1c(F)cc(F)cc1-c1c[nH]c2ncc(-c3cnn(C4CCNCC4)c3)cc12    1.23

Now, please, on to the next compound.
Asked: Could you tell me which IC50 is on file for O=C(c1cc(Cc2n[nH]c(=O)c3ccccc23)ccc1F)N1CCN(C(=O)C2CC2)CC1 ?
Given back: 55.5

src = patent US20220296583A1
